Target: UniProtKB P30938
Sequence (P30938 whole entry): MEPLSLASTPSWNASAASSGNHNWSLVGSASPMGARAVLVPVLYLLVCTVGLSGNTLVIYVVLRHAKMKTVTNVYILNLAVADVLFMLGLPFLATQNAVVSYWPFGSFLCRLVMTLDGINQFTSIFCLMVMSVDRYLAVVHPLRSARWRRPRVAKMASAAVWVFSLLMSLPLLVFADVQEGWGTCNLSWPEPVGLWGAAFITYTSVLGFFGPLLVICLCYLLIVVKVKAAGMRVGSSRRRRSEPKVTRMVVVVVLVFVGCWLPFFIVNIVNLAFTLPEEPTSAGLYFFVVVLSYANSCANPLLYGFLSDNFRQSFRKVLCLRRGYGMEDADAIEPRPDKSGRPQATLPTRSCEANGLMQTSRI
Non-standard residues stand in square brackets, D forms with d. Residues, ends and D or L forms follow the SMILES beside them. ξ: configuration not given here. d2Nal = N[C@H](Cc1ccc2ccccc2c1)C(=O)O; ξPhg = NC(C(=O)O)c1ccccc1
This section presents compounds with their documented Ki values.
Note: unit nM is implicit; provide only the numeric part.

Use the examples below as a reference point.
The reported UniProtKB P30938 Ki of CC(C)[C@H](NC(=O)[C@H](CCCCN)NC(=O)[C@H](Cc1c[nH]c2ccccc12)NC(=O)[C@H](Cc1ccc(O)cc1)NC(=O)[C@H](Cc1ccccc1)NC(=O)C(N)c1ccccc1)C(=O)N[C@@H](Cc1ccccc1)C(=O)N[C@H](C(N)=O)[C@@H](C)O (stereo partly drawn) [D-Phe-Phe-Tyr-D-Trp-Lys-Val-Phe-Thr-NH2] (H-[ξPhg]FYWKVFT-NH2) is 77

The reported UniProtKB P30938 Ki of C[C@@H](O)[C@H](NC(=O)[C@H](Cc1ccccc1)NC(=O)[C@@H](NC(=O)[C@H](CCCCN)NC(=O)[C@@H](Cc1c[nH]c2ccccc12)NC(=O)[C@H](Cc1ccccc1)NC(=O)[C@H](Cc1ccccc1)NC(=O)[C@H](N)Cc1ccccc1)[C@@H](C)O)C(N)=O [CAS_133073-82-2] (H-[dF]FF[dW]KTFT-NH2) is 18

The reported UniProtKB P30938 Ki of CC(C)[C@H](NC(=O)[C@H](CCCCN)NC(=O)[C@@H](Cc1c[nH]c2ccccc12)NC(=O)[C@H](Cc1ccc(O)cc1)NC(=O)[C@H](Cc1ccccc1)NC(=O)[C@H](N)Cc1ccccc1)C(=O)N[C@@H](Cc1ccccc1)C(=O)N[C@H](Cc1ccc2ccccc2c1)C(N)=O [CAS_150155-61-6] (H-[dF]FY[dW]KVF[d2Nal]-NH2) is 158

Attention now turns to another entry.
The reported UniProtKB P30938 Ki of CC(C)[C@H](NC(=O)[C@H](CCCCN)NC(=O)[C@H](Cc1c[nH]c2ccccc12)NC(=O)[C@H](Cc1ccc(O)cc1)NC(=O)[C@@H](N)CS)C(=O)N[C@@H](CS)C(=O)N[C@H](C(N)=O)[C@@H](C)O [D-Nal-Cys-Tyr-D-Trp-Lys-Val-Cys-Thr-NH2] (H-CYWKVCT-NH2) is 1000
